- assayed.target: Casein kinase I isoform gamma-1 (Homo sapiens);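 note: reported value is the mean inhibition of CK1 gamma-1 kinase activity across replicate measurements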
- condition.details: at 1 µM
Listed below: inhibition values for each entry.

mol: NC(=O)c1ccc2c(-c3ccnc(NCCCO)n3)c(-c3ccc(F)cc3)nn2c1
unit.of.measure: %
inhibition: 19.8
--
mol: COc1cccc(Nc2nccc(-c3cnn4ncccc34)n2)c1
unit.of.measure: %
inhibition: 20.5
--
mol: CN(c1ccc(NC(=O)NCCN2CCOCC2)cc1)c1ccnc(Nc2ccc(CS(C)(=O)=O)cc2)n1
unit.of.measure: %
inhibition: 3.24
--
mol: CS(=O)(=O)CCNCc1ccc(-c2ccc3ncnc(Nc4ccc(OCc5cccc(C(F)(F)F)c5)cc4)c3c2)o1
unit.of.measure: %
inhibition: 4.57
--
mol: CCn1c(-c2nonc2N)nc2cncc(C(=O)NCCNC)c21
unit.of.measure: %
inhibition: 5.89
--
mol: NS(=O)(=O)c1ccc(N/N=C2\C(=O)Nc3cccc(CCc4ccncc4)c32)cc1
unit.of.measure: %
inhibition: 0.85
--
mol: COC(=O)Nc1nc2ccc(Oc3ccc(NC(=O)Nc4cc(C(F)(F)F)ccc4F)cc3)cc2s1
unit.of.measure: %
inhibition: -0.02
--
mol: COc1ccccc1-c1cc(/C=C2\C(=O)Nc3ncc(Br)cc32)cc(Br)c1O
unit.of.measure: %
inhibition: 5.44
--
mol: CCOc1ccc2c(-c3ccnc(Nc4cc(OC)cc(C(F)(F)F)c4)n3)cnn2n1
unit.of.measure: %
inhibition: 1.33
--
mol: CNC(=O)c1cncc(/C=C/c2ccccc2C)c1
unit.of.measure: %
inhibition: 3.62

* * *

- assayed.target: Platelet-derived growth factor receptor beta (Homo sapiens);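 note: reported value is the mean percent inhibition of the kinase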
- condition.details: at 0.1 µM
Record yes (1) whenever inhibition is at 7% or higher; record no (0) when lower.

molecule: CN1CCC(n2cnc(-c3ccc(F)cc3)c2-c2ccnc(NCCO)n2)CC1
class.name: yes (1)
//
molecule: O=C1Nc2ccccc2/C1=C1\CCc2cc(O)ccc21
class.name: yes (1)
//
molecule: COc1cc(Nc2ncc(-c3ccccc3)o2)cc(OC)c1
class.name: yes (1)
//
molecule: COc1cc(N2CCN(C(C)C)CC2)ccc1Nc1nc(Nc2cccc(F)c2C(=O)O)c2cc[nH]c2n1
class.name: yes (1)
//
molecule: COC(=O)Nc1nc2ccc(Oc3ccc(NC(=O)Nc4cc(C(F)(F)F)ccc4F)cc3)cc2s1
class.name: yes (1)
//
molecule: Cc1nnc(-c2cccc(-c3ccc(C(=O)NCC4CC4)cc3)c2)o1
class.name: no (0)
//
molecule: OCCCNc1nccc(-c2c(-c3ccc(F)cc3)nn3cc(C(F)(F)F)ccc23)n1
class.name: no (0)
//
molecule: NS(=O)(=O)c1cccc(N/C=C2\C(=O)Nc3ccccc32)c1
class.name: no (0)
//
molecule: CN(c1ccc(NC(=O)NCCN2CCOCC2)cc1)c1ccnc(Nc2ccc(CS(C)(=O)=O)cc2)n1
class.name: yes (1)
//
molecule: c1cnn2ncc(-c3ccnc(NCCCN4CCOCC4)n3)c2c1
class.name: no (0)
//
molecule: CS(=O)(=O)Nc1ccc(-c2ccc3c(NC(=O)C4CC4)n[nH]c3c2)cc1
class.name: no (0)
//
molecule: c1ccc(-c2n[nH]cc2-c2ccnc(-c3ccc(OCCn4ccnc4)cc3)c2)nc1
class.name: yes (1)
//
molecule: COc1ccc(Nc2ncc(-c3ccccc3)o2)cc1OC
class.name: yes (1)
//
molecule: CS(=O)(=O)CCNCc1ccc(-c2ccc3ncnc(Nc4ccc(OCc5cccc(C(F)(F)F)c5)cc4)c3c2)o1
class.name: yes (1)
//
molecule: CCS(=O)(=O)c1ccc(OC)c(Nc2ncc(-c3cccc(F)c3)o2)c1
class.name: yes (1)
//
molecule: N#Cc1ccc2c(-c3ccnc(NC4CC4)n3)c(-c3ccc(F)cc3)nn2c1
class.name: no (0)
//
molecule: NS(=O)(=O)c1ccc(N/N=C2\C(=O)Nc3ccc(C(=O)NCc4ccncc4)cc32)cc1
class.name: yes (1)
//
molecule: CNC(=O)c1cncc(/C=C/c2ccccc2C)c1
class.name: no (0)
//
molecule: NC(=O)c1ccc2c(-c3ccnc(NCCCO)n3)c(-c3ccc(F)cc3)nn2c1
class.name: no (0)
//
molecule: Cn1c(-c2nonc2N)nc2cnccc21
class.name: no (0)
//
molecule: Cc1c2ccc(N(C)c3ccnc(Nc4cccc(S(N)(=O)=O)c4)n3)cc2nn1C
class.name: yes (1)
//
molecule: CC1=C(C(=O)Nc2ccc3[nH]nc(C)c3c2)C(c2ccc(C(F)(F)F)cc2)CC(=O)N1 (centres undefined)
class.name: yes (1)
//
molecule: CCCNc1cccc(-n2ncc3c(N/N=C/c4ccncc4)ncnc32)c1
class.name: yes (1)
//
molecule: Cc1ccc(-c2cc3c(NC(=O)C4CC4)ncnc3o2)cc1
class.name: yes (1)
//
molecule: COc1cc2c(cc1Nc1nc(Nc3cccc(F)c3C(N)=O)c3cc[nH]c3n1)N(C(=O)CN1CCN(C(C)C)CC1)CC2
class.name: no (0)
//
molecule: CCS(=O)(=O)c1ccc(OC)c(Nc2ncc(-c3cccc(C(C)=O)c3)o2)c1
class.name: yes (1)
//
molecule: CS(=O)(=O)Nc1ccc(-c2cc(-c3ccccc3)cc(C(N)=O)c2N)cc1
class.name: no (0)
